# tgt: Ephrin type-B receptor 6 (Homo sapiens, UniProt O15197)
# Sequence (O15197 whole entry): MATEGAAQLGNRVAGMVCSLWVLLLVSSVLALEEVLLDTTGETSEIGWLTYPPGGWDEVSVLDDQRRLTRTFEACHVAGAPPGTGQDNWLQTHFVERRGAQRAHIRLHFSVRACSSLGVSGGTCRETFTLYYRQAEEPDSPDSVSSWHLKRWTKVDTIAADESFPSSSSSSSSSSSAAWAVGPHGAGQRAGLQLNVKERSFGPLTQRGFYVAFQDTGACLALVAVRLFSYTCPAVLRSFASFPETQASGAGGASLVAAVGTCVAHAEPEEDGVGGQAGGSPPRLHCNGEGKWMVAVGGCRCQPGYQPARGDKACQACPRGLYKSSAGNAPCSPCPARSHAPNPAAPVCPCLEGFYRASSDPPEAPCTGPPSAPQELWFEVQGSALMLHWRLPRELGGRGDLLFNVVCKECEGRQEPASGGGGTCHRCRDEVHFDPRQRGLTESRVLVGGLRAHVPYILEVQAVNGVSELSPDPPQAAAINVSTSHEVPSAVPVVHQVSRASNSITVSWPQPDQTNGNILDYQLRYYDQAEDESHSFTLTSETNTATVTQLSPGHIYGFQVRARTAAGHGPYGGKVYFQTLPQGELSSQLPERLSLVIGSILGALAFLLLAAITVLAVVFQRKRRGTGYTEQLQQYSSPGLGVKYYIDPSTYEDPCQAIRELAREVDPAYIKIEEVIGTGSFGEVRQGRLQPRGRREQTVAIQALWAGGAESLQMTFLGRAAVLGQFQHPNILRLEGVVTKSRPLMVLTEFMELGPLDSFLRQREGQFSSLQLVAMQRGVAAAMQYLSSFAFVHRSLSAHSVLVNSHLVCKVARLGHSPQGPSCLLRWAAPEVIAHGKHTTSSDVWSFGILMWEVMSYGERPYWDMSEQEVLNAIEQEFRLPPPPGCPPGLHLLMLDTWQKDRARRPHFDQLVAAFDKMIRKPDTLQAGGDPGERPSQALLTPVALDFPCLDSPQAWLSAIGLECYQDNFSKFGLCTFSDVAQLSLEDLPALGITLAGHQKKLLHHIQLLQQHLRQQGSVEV
Activity calls are given as the source filed them.
Reply using exactly one outcome from class 1 = active, class 0 = inactive

Past entries and their recorded results:
C=CC(=O)N1CCC[C@H](n2c(=O)n(-c3ccc(Oc4ccccc4)cc3)c3c(N)ncnc32)C1 :: class 0
Cn1cc(-c2cnn3c(N)c(Br)c([C@@H]4CCCNC4)nc23)cn1 :: class 0
CCn1cc(-c2ccnc3[nH]c(-c4cccc(CN(C)C)c4)cc23)c(-c2ccc(NC(=O)N(C)C)cc2)n1 :: class 1
Cn1cc(-c2cnc3ccc4ccc(CS(=O)(=O)NCc5ccccn5)cc4c(=O)c3c2)cn1 :: class 0
O=C1NC(=O)[C@@H](c2cn3c4c(cccc24)CCC3)[C@@H]1c1c[nH]c2ccccc12 [TIVANTINIB] :: class 0

-- ask Please let me know the test result on file for `C[C@@H](NC(=O)c1ncnc(N)c1Cl)c1ncc(C(=O)Nc2cc(C(F)(F)F)c(Cl)cn2)s1` .
-- reply class 1

-- ask Could you please tell me the result logged for `C#Cc1cccc(Nc2ncnc3cc(OC)c(OCCCCCCC(=O)NO)cc23)c1` in this assay?
-- reply class 0

-- ask # fetch the recorded call for `CCCCCCCCCCCCCCCCCCOP(=O)([O-])OC1CC[N+](C)(C)CC1` here
-- reply class 0

----------
# tgt: Serine/threonine-protein kinase Chk1 (Homo sapiens)
# Sequence (O14757 whole entry): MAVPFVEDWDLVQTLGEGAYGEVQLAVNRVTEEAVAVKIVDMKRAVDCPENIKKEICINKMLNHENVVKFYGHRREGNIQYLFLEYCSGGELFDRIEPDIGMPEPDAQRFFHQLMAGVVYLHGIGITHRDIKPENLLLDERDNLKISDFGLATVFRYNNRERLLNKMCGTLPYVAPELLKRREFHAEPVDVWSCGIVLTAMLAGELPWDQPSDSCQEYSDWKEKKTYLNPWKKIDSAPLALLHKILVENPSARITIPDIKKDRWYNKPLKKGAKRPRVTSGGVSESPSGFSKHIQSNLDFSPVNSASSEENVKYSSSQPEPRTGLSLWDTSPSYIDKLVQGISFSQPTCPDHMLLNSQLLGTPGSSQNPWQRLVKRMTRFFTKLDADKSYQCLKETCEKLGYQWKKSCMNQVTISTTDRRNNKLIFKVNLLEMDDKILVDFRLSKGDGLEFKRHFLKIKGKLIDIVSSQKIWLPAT
Counter-ions that a name gives are not always drawn. Activity calls are given as the source filed them.
Log the outcome using a class from class 1 = active, class 0 = inactive

Worked examples follow.
CCNC(=O)C#Cc1ccc2c(c1)NC(=O)/C2=C(\Nc1ccc(CN(C)C)cc1)c1ccccc1 :: class 0
O=C1NC(=O)[C@@H](c2cn3c4c(cccc24)CCC3)[C@@H]1c1c[nH]c2ccccc12 [TIVANTINIB] :: class 0
CO[C@H]1C[C@@H]2CC[C@@H](C)[C@@](O)(O2)C(=O)C(=O)N2CCCC[C@H]2C(=O)O[C@H]([C@H](C)C[C@@H]2CC[C@@H](OP(C)(C)=O)[C@H](OC)C2)CC(=O)[C@H](C)/C=C(\C)[C@@H](O)[C@@H](OC)C(=O)[C@H](C)C[C@H](C)/C=C/C=C/C=C/1C [RIDAFOROLIMUS] :: class 0
O=C(Nc1c[nH]nc1-c1nc2cc(CN3CCOCC3)ccc2[nH]1)NC1CC1 [AT-9283] :: class 1
CO[C@H]1C[C@@H]2CC[C@@H](C)[C@@](O)(O2)C(=O)C(=O)N2CCCC[C@H]2C(=O)O[C@H]([C@H](C)C[C@@H]2CC[C@@H](OC(=O)C(C)(CO)CO)[C@H](OC)C2)CC(=O)[C@H](C)/C=C(\C)[C@@H](O)[C@@H](OC)C(=O)[C@H](C)C[C@H](C)/C=C/C=C/C=C/1C [TEMSIROLIMUS] :: class 0

-- ask Recorded test call requested for C[C@@H](N)c1ccc(C(=O)Nc2ccnc3[nH]ccc23)cc1 [Y-39983]
-- reply class 0

-- ask Check the results log: what was the call for CO[C@H]1C[C@@H]2CC[C@@H](C)[C@@](O)(O2)C(=O)C(=O)N2CCCC[C@H]2C(=O)O[C@H]([C@H](C)C[C@@H]2CC[C@@H](O)[C@H](OC)C2)CC(=O)[C@H](C)/C=C(\C)[C@@H](O)[C@@H](OC)C(=O)[C@H](C)C[C@H](C)/C=C/C=C/C=C/1C [SIROLIMUS] ?
-- reply class 0

-- ask Returns: the outcome recorded for CC(C)c1cc(CNc2nc(Nc3cc(C4CC4)[nH]n3)cc(N3CCN(C)CC3)n2)on1 [XL-228] in this assay.
-- reply class 0

-- ask Please let me know the test result on file for COc1c(OCCCN2CCOCC2)ccc2c1N=C(NC(=O)c1cnc(N)nc1)N1CCN=C21 [COPANLISIB] .
-- reply class 0

-- ask What did this assay record as the result for CCS(=O)(=O)N1CCN(c2ccc(Nc3ncc(C(N)=O)c(NC4CC4)n3)cc2)CC1 [Cerdulatinib Hydrochloride] ?
-- reply class 1

-- ask Recorded test outcome, item `CC(=O)c1cnc2ccc(-c3cc(Cl)c(O)c(Cl)c3)nc2c1N[C@H]1CC[C@H](CN(C)C)CC1`
-- reply class 0
